- assay-details: in vitro
- condition-notes: human
Structures can show the parent of a compound that is named as a salt.
Here, each record is paired with measured CC50 at 96 hr data.

NC(=O)C(N)O (stereo not drawn) [AlphaHGA, α-Hydroxy-glycinamide hydrochloride] :: 606 µM

Please give the documented CC50 at 96 hr of CN1C(=O)C(C)(C)NNC1=S
≥ 1150 µM

Please give the documented CC50 at 96 hr of CN1C(=O)C2(CCCCC2)NNC1=S
≥ 930 µM

* * *

- Tested on: HIV-1 (IIIB)
- assay-details: microbe, parasite or virus in culture
- condition-notes: Human immunodeficiency virus 1, IIIB, CCRF-CEM, read-out: EC50 against HIV-1(IIIB)
endpoint: EC50

Please give the documented EC50 of NCCCC[C@H](N)C(N)=O [L-Lysinamide]
> 500 µM

* * *

- System: Vesicular stomatitis virus
- condition-notes: read-out: Minimum inhibitory concentration Vesicular stomatitis virus; HeLa; reduces virus-induced cytopathogenicity by 50%
Residues, ends and D or L forms follow the SMILES beside them.
endpoint: EC50

NCC(=O)N1CCC[C@H]1C(=O)NCC(N)=O [GPG-NH2, glycylprolylglycinamide] (H-Gly-Pro-Gly-NH2) :: > 400 µM

Now consider the entry below.
Please give the documented EC50 of NCC(N)=O [G-NH2, glycinamide]
> 2000 µM

Every entry's value here was drawn from patent US20080076824A1.
